TARGET_OF_ASSAY: T1, Caspase-8, Q14790
T1 chain: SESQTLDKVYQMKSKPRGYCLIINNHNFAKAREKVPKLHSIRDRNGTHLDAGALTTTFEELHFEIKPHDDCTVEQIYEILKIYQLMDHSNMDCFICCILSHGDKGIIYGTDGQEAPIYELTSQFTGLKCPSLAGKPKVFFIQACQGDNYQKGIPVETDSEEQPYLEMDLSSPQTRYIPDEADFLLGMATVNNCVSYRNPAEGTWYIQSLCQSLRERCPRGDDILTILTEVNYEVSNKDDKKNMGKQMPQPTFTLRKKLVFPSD
TEST: cell-based or functional assay
We begin with a simple list: items and their reported k2.
MEASURED_ATTRIBUTE: k2 (M⁻¹ s⁻¹)

In [3]: df
Out[3]:
                                     binder  unit_label  recorded_result
0  DEVD (modifications not checked) [Cbz-Asp-Glu-Val-AAsp-CH═CH-CONHCH2Ph]     M⁻¹ s⁻¹            78200
1  LETD (modifications not checked) [Cbz-Leu-Glu-Thr-AAsp-CH═CH-COOEt]     M⁻¹ s⁻¹           237000
2  DEVD (modifications not checked) [Cbz-Asp-Glu-Val-AAsp-CH═CH-COOCH2Ph]     M⁻¹ s⁻¹           121000
3  DEVD (modifications not checked) [Cbz-Asp-Glu-Val-AAsp-CH═CH-COOEt (trans)]     M⁻¹ s⁻¹           273000
